Experiment: Caco-2 membrane permeability, improved method as used in the following Examples (96-well, 20 to 24 h preincubation)
Assay type: in vitro ADME
Details: human, Caco-2, Caco-2 (cm/sec)
Procedure: In the following Examples, membrane permeability was measured in accordance with the improved method established as described above. […] Each well was shaken at 5% CO2, 37° C., and 80 rpm, and 180 minutes after the initiation, the sample on the basal side was collected and the permeation amount was measured by LC/MS. The membrane permeability coefficient (Papp) was calculated from the permeation amount. […]
Positions of bridges follow the written chain, without caps; N, C: chain ends. Non-standard residues stand in square brackets, D forms with d. Residues, ends and D or L forms follow the SMILES beside them. *: point of attachment. Phe(4-CF3) = N[C@@H](Cc1ccc(C(F)(F)F)cc1)C(=O)O; NMeF = CN[C@@H](Cc1ccccc1)C(=O)O; hPhe = N[C@@H](CCc1ccccc1)C(=O)O; NMeD = CN[C@@H](CC(=O)O)C(=O)O; NMeL = CN[C@@H](CC(C)C)C(=O)O; NMeV = CN[C@H](C(=O)O)C(C)C; Pip = O=C(O)[C@@H]1CCCCN1; NMeA = CN[C@@H](C)C(=O)O; Piperidide = C1CCN(*)CC1; Sar = CNCC(=O)O; tBu = CC(C)(C)*
Each record is given Criterion met if its reported Papp A→B at 180 min is strictly below 2 ×10⁻⁶ cm/s. Records at or above 2 ×10⁻⁶ cm/s are given Criterion not met.

Q: Report whether reported Papp A→B at 180 min is lower than 2 ×10⁻⁶ cm/s (strictly) for CC(C)C[C@H]1C(=O)N[C@@H](COC(C)(C)C)C(=O)N(C)[C@@H](Cc2ccccc2)C(=O)N(C)[C@@H](C(C)C)C(=O)N[C@H](C(=O)N2CCCCC2)CC(=O)N[C@H](C(C)C)C(=O)N(C)[C@@H](C)C(=O)N[C@@H](C(C)C)C(=O)N(C)[C@@H](CC(C)C)C(=O)N[C@@H](Cc2ccc(O)cc2)C(=O)N(C)CC(=O)N1C [pd121] ([dV][NMeA]V[NMeL]Y[Sar][NMeL]S(tBu)[NMeF][NMeV]D-Piperidide; lactam N-11)
A: Criterion met

Q: Dear reviewer, please state whether CC(C)C[C@@H]1NC(=O)[C@H](Cc2ccccc2)N(C)C(=O)[C@H](C)N(C)C(=O)C[C@@H](C(=O)N2CCCCC2)N(C)C(=O)[C@H](Cc2ccccc2)N(C)C(=O)[C@H](Cc2ccccc2)N(C)C(=O)[C@H](COC(C)(C)C)NC(=O)[C@H](C(C)C)N(C)C(=O)CN(C)C(=O)[C@H]([C@@H](C)O)NC(=O)[C@H](CC(C)C)N(C)C1=O [pd202] ([NMeA][NMeF]L[NMeL]T[Sar][NMeV]S(tBu)[NMeF][NMeF][NMeD]-Piperidide; lactam N-11) has Papp A→B at 180 min strictly beneath 2 ×10⁻⁶ cm/s.
A: Criterion not met

Q: Could you please tell me whether Papp A→B at 180 min recorded for CC(C)C[C@H]1C(=O)N(C)[C@@H](Cc2ccccc2)C(=O)N[C@@H](COC(C)(C)C)C(=O)N(C)[C@@H](C)C(=O)N[C@H](C(=O)N2CCCCC2)CC(=O)N(C)[C@@H](C)C(=O)N(C)[C@@H](Cc2ccccc2)C(=O)N[C@@H](CCc2ccccc2)C(=O)N(C)[C@@H](CC(C)C)C(=O)N[C@@H]([C@@H](C)O)C(=O)N(C)CC(=O)N1C [pd183] ([NMeA][NMeF][hPhe][NMeL]T[Sar][NMeL][NMeF]S(tBu)[NMeA]D-Piperidide; lactam N-11) is less than 2 ×10⁻⁶ cm/s?
A: Criterion not met

Q: In the record for CC(C)C[C@@H]1NC(=O)[C@H](Cc2ccccc2)N(C)C(=O)[C@H]2CCCN2C(=O)C[C@@H](C(=O)N2CCCCC2)NC(=O)[C@H](Cc2ccccc2)N(C)C(=O)[C@H](Cc2ccccc2)N(C)C(=O)[C@H](COC(C)(C)C)NC(=O)[C@H](CC(C)C)N(C)C(=O)CN(C)C(=O)[C@H]([C@@H](C)O)NC(=O)[C@H](CC(C)C)N(C)C1=O [pd206] ([dP][NMeF]L[NMeL]T[Sar][NMeL]S(tBu)[NMeF][NMeF]D-Piperidide; lactam N-11) , is Papp A→B at 180 min less than 2 ×10⁻⁶ cm/s?
A: Criterion met

Q: Does the reported Papp A→B at 180 min of the following compound sit strictly below 2 ×10⁻⁶ cm/s? CC(C)C[C@@H]1NC(=O)[C@H](CC(C)C)N(C)C(=O)[C@H](C(C)C)NC(=O)C[C@@H](C(=O)N2CCCCC2)NC(=O)[C@H](CC(C)C)N(C)C(=O)[C@H](Cc2ccccc2)N(C)C(=O)[C@H]([C@@H](C)O)NC(=O)[C@H](Cc2ccc(C(F)(F)F)cc2)NC(=O)[C@H](C)N(C)C1=O [pd145] (V[NMeL]L[NMeA][Phe(4-CF3)]T[NMeF][NMeL]D-Piperidide; lactam N-9)
A: Criterion met

Q: Consider the compound CC(C)C[C@H]1C(=O)N(C)[C@@H](CC(C)C)C(=O)N[C@@H](COC(C)(C)C)C(=O)N(C)[C@@H](C(C)C)C(=O)N[C@H](C(=O)N2CCCCC2)CC(=O)N(C)CC(=O)N(C)[C@@H](Cc2ccccc2)C(=O)N[C@@H](Cc2ccc(C(F)(F)F)cc2)C(=O)N(C)[C@@H](CC(C)C)C(=O)N[C@@H]([C@@H](C)O)C(=O)N(C)CC(=O)N1C [pd140] ([Sar][NMeF][Phe(4-CF3)][NMeL]T[Sar][NMeL][NMeL]S(tBu)[NMeV]D-Piperidide; lactam N-11) . Is its Papp A→B at 180 min strictly less than 2 ×10⁻⁶ cm/s?
A: Criterion not met

Q: Confirm or reject: Papp A→B at 180 min of CC(C)C[C@H]1C(=O)NCC(=O)N[C@H](C(=O)N(C)[C@@H](Cc2ccccc2)C(=O)N(C)[C@@H](Cc2ccccc2)C(=O)N[C@@H](C)C(=O)N2CCCCC2)CC(=O)N[C@@H](C)C(=O)N[C@@H]([C@@H](C)O)C(=O)N(C)[C@@H](C)C(=O)N(C)[C@@H](Cc2ccccc2)C(=O)N[C@@H](C(C)C)C(=O)N(C)[C@@H](Cc2ccccc2)C(=O)N1C [pd247] (AT[NMeA][NMeF]V[NMeF][NMeL]GD[NMeF][NMeF]A-Piperidide; lactam N-9) lies strictly below 2 ×10⁻⁶ cm/s
A: Criterion met

Q: State whether 2 ×10⁻⁶ cm/s exceeds Papp A→B at 180 min recorded for CC(C)C[C@H]1C(=O)N[C@H](C(=O)N2CCCCC2)CC(=O)N[C@H](C)C(=O)N(C)[C@@H](CC(C)C)C(=O)N2CCCC[C@H]2C(=O)N(C)[C@@H](CC(C)C)C(=O)N2CCCC[C@H]2C(=O)N(C)[C@@H](C)C(=O)N[C@@H]([C@@H](C)O)C(=O)N(C)[C@@H](Cc2ccccc2)C(=O)N[C@@H](Cc2ccc(C(F)(F)F)cc2)C(=O)N1C [pd141] ([dA][NMeL][Pip][NMeL][Pip][NMeA]T[NMeF][Phe(4-CF3)][NMeL]D-Piperidide; lactam N-11) .
A: Criterion not met

Q: Answer whether the compound CC(C)C[C@@H]1NC(=O)[C@H](Cc2ccccc2)N(C)C(=O)[C@H](CC(C)C)N(C)C(=O)[C@H](Cc2ccccc2)NC(=O)[C@@H](C)NC(=O)C[C@@H](C(=O)N2CCCCC2)NC(=O)[C@H](Cc2ccccc2)N(C)C(=O)CN(C)C(=O)[C@H](Cc2ccccc2)NC(=O)[C@H](CC(C)C)N(C)C(=O)[C@H]([C@@H](C)O)NC1=O [pd244] ([dA]F[NMeL][NMeF]LT[NMeL]F[Sar][NMeF]D-Piperidide; lactam N-11) has Papp A→B at 180 min strictly less than 2 ×10⁻⁶ cm/s
A: Criterion met
